# test-description: Steady state volume of distribution in male Sprague-Dawley rats
# Assay type: ADME, organism-based
# applied-conditions: rat, in vivo
experimental-readout: Vd (L/kg)

- N#Cc1ccc(NCCNCC(=O)N2CCC[C@H]2C#N)nc1: 0.67

----------
# test-description: Cmax after an oral dose of 10 umol/Kg in male cynomolgus monkeys
# Format: ADME, organism-based, Macaca fascicularis
# Set-up: dose 10 umol/Kg, route oral
# applied-conditions: cynomolgus monkey, in vivo
experimental-readout: Cmax (µM)

- N#Cc1ccc(NCCNCC(=O)N2CCC[C@H]2C#N)nc1: 7.56

----------
# test-description: Steady state volume of distribution male cynomolgus monkeys
# Format: ADME, organism-based, Macaca fascicularis
# applied-conditions: cynomolgus monkey, in vivo
experimental-readout: Vd (L/kg)

- N#Cc1ccc(NCCNCC(=O)N2CCC[C@H]2C#N)nc1: 0.841

----------
# test-description: Absolute bioavailability in maleSprague-Dawley rats
# Assay type: ADME, organism-based
# applied-conditions: male, Sprague-Dawley, rat, in vivo
experimental-readout: bioavailability

* N#Cc1ccc(NCCNCC(=O)N2CCC[C@H]2C#N)nc1 | ≥ 74%

----------
# study-system: Dipeptidyl peptidase 4 (Rattus norvegicus, UniProt P14740)
# Sequence (P14740 whole entry): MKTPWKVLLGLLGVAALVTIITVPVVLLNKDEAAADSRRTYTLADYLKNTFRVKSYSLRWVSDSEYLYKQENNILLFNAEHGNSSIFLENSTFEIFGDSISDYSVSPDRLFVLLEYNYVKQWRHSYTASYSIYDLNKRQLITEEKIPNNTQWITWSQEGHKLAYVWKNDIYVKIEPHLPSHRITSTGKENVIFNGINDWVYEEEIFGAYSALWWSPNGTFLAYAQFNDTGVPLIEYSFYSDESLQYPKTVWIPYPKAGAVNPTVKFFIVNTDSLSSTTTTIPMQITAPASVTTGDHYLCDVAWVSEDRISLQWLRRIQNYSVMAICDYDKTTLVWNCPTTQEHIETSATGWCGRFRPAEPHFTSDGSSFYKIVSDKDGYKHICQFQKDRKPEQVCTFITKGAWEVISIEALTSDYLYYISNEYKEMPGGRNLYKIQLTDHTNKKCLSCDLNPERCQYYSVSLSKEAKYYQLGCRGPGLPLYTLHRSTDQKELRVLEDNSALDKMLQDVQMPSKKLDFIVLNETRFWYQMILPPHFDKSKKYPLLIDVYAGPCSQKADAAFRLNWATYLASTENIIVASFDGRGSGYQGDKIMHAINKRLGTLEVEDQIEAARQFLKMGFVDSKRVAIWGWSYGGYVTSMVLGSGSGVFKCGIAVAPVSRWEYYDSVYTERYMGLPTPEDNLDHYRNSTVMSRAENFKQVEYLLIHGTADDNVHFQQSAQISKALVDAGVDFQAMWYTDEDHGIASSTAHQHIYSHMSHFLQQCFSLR
# test-description: In vitro inhibitory activity against Dipeptidyl peptidase IV (DPP-IV) extracted from rat plasma
experimental-readout: IC50 (nM)

• N#C[C@@H]1CCCN1C(=O)[C@@H](N)C1CCCCC1 = 2.8

----------
# test-description: Cmax after an oral dose of 10 umol/Kg in male Sprague-Dawley rats
# Format: ADME, organism-based
# Parameters: dose 10 umol/Kg, route oral
# applied-conditions: rat, in vivo
experimental-readout: Cmax (µM)

* N#Cc1ccc(NCCNCC(=O)N2CCC[C@H]2C#N)nc1 | 3.65

----------
# test-description: Absolute bioavailability in male cynomolgus monkeys
# Type: ADME, organism-based, Macaca fascicularis
# applied-conditions: cynomolgus monkey, in vivo
experimental-readout: bioavailability

- N#Cc1ccc(NCCNCC(=O)N2CCC[C@H]2C#N)nc1: ≥ 74%
